systemName: recombinant human GR (Homo sapiens, UniProt P04150)
Sequence (P04150 whole entry): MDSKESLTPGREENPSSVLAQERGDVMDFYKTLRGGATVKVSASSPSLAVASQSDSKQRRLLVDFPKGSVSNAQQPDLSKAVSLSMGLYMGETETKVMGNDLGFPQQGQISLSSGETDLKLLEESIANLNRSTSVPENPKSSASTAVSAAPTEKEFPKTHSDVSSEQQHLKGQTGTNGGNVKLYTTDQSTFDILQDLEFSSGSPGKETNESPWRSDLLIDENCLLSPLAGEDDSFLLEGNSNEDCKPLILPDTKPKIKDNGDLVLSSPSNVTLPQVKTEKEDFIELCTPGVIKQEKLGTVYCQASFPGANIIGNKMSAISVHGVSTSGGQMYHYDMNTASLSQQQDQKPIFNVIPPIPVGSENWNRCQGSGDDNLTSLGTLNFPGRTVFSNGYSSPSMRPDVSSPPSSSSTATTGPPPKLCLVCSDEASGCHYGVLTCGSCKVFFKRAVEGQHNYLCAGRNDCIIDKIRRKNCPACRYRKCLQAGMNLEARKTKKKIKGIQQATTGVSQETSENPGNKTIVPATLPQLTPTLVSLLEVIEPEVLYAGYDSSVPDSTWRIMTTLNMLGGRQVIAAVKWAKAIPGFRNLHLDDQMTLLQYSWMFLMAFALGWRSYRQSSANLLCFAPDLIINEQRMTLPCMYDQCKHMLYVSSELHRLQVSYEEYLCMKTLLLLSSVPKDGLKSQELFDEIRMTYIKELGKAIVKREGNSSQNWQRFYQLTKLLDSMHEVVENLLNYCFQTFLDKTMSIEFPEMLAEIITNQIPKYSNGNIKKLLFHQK
assayName: Human Glucocorticoid Receptor (GR) Assay, fluorescence polarization
protocolConditions: GS Red tracer, incubated 2 h at r.t., XLfit model 205, read-out: GRhuFL_FP_v2 Mean IC50
pIC50: −log10 of the molar value.
Given measured pIC50, output Condition met if it is greater than or equal to 8 and Condition not met if not.

COc1cccc([C@@H](Oc2ccc3c(cnn3-c3ccc(F)cc3)c2)[C@H](C)NC(=O)c2cc3ccccn3n2)c1; Condition met

Does COCC(=O)N[C@@H](CO)C(Oc1ccc2c(cnn2-c2ccc(F)cc2)c1)c1cccc(F)c1 (mixture of isomers) have a reported pIC50 of at least 8? Condition not met

Does `C[C@H](NC(=O)C(C)(C)C)[C@H](Oc1ccc2c(cnn2-c2ccc(F)cc2)c1)c1ccc(F)c(F)c1` have a reported pIC50 of at least 8? Condition met

Does C[C@H](NC(=O)C(F)(F)F)[C@H](COc1ccccc1)Oc1ccc2c(cnn2-c2ccc(F)cc2)c1 (racemic) have a reported pIC50 of at least 8? Condition not met

====

Provide the recorded IC50 for the entries that follow.
systemName: recombinant human GR (Homo sapiens)
assayName: Human Glucocorticoid Receptor (GR) Assay, fluorescence polarization
protocolConditions: GS Red tracer, incubated 2 h at r.t., XLfit model 205, read-out: GRhuFL_FP_v2 Mean IC50
Answers are plain numbers, in nM.

Some entries whose results are on file:
C[C@H](NC(=O)C(F)(F)F)[C@H](Oc1ccc2c(cnn2-c2ccc(F)cc2)c1)c1ccc(Cl)c(F)c1; 7.1
C[C@H](NC(=O)C(F)(F)F)[C@H](Oc1ccc2c(cnn2-c2cccc(CO)c2)c1)c1ccccc1; 3

Note: attention shifts to another entry.
Assign IC50 to the following record: `C[C@H](O)C(=O)N[C@@H](C)[C@H](Oc1ccc2c(cnn2-c2ccc(F)cc2)c1)c1ccccc1` 2.9

====

systemName: recombinant human GR (Homo sapiens, UniProt P04150)
assayName: Human Glucocorticoid Receptor (GR) Assay, fluorescence polarization
protocolConditions: GS Red tracer, incubated 2 h at r.t., XLfit model 205, read-out: GRhuFL_FP_v2 Mean IC50
metric: pIC50
Give bare numbers, as −log10 of the molar value.

Some entries whose results are on file:
COc1cccc([C@@H](Oc2ccc3c(cnn3-c3ccc(F)cc3)c2)[C@H](C)NC(=O)c2nc3ccccc3[nH]2)c1; 8.39
CCSCc1ccc([C@@H](Oc2ccc3c(cnn3-c3ccc(F)cc3)c2)[C@H](C)NC(=O)CO)cc1; 8.49
C[C@H](NC(=O)C(F)(F)F)[C@@H](COc1ccccc1)Oc1ccc2c(cnn2-c2ccc(F)cc2)c1 (single isomer, unassigned); 8.77

Hi, could you look up pIC50 for each item in my list?
1. CCC[C@H](NC(=O)CO)[C@H](Oc1ccc2c(cnn2-c2ccc(F)cc2)c1)c1ccccc1
2. CNC(=O)C(=O)N[C@@H](C)[C@H](Oc1ccc2c(cnn2-c2ccc(F)cc2)c1)c1cccc(OC)c1
3. Cc1cnc(C(=O)N[C@@H](C)[C@H](Oc2ccc3c(cnn3-c3ccc(F)cc3)c2)c2cc(F)cc(Cl)c2)s1

1: 8.28; 2: 8.59; 3: 8.18

====

systemName: recombinant human GR (Homo sapiens, UniProt P04150)
assayName: Human Glucocorticoid Receptor (GR) Assay, fluorescence polarization
protocolConditions: GS Red tracer, incubated 2 h at r.t., XLfit model 205, read-out: GRhuFL_FP_v2 Mean IC50
Criterion: IC50 strictly under 4 nM. Met: rule met. Not met: rule not met.

Recorded results for 4 compounds are shown here.
Cc1ccc(C)c([C@@H](Oc2ccc3c(cnn3-c3ccc(F)cc3)c2)[C@H](C)NC(=O)C(C)(C)F)c1 [Example 244]; rule not met
Cc1ccc([C@@H](Oc2ccc3c(cnn3-c3ccc(F)cc3)c2)[C@H](C)NC(=O)C2(C)CC2)cc1C [Example 211]; rule met
Cc1cccc([C@@H](Oc2ccc3c(cnn3-c3ccc(F)cc3)c2)[C@H](C)NC(=O)C2(C)CC2)c1 [Example 225]; rule not met
COCC(=O)N[C@@H](C)[C@H](Oc1ccc2c(cnn2-c2ccc(F)cc2)c1)c1ccc(F)c(F)c1 [Example 258]; rule not met

Strictly below 4 nM: is that where IC50 of COc1cccc([C@@H](Oc2ccc3c(cnn3-c3ccc(F)cc3)c2)[C@H](C)NC(=O)c2cc(C)[nH]n2)c1 [Example 282] sits? rule met

Strictly below 4 nM: is that where IC50 of COc1cccc([C@@H](Oc2ccc3c(cnn3-c3ccc(F)cc3)c2)[C@H](C)NC(=O)c2cccn2C)c1 [Example 133] sits? rule met

Strictly below 4 nM: is that where IC50 of COc1cccc([C@@H](Oc2ccc3c(cnn3-c3ccc(F)cc3)c2)[C@H](C)NC(=O)c2ncco2)c1 [Example 84] sits? rule met

Strictly below 4 nM: is that where IC50 of COc1cccc([C@@H](Oc2ccc3c(cnn3-c3ccc(F)cc3)c2)[C@H](C)NC(=O)c2ccon2)c1 [Example 280] sits? rule met

Strictly below 4 nM: is that where IC50 of COc1c(C)cc([C@@H](Oc2ccc3c(cnn3-c3ccc(F)cc3)c2)[C@H](C)NC(=O)C(F)(F)F)cc1C [Example 159] sits? rule not met

Strictly below 4 nM: is that where IC50 of C[C@H](NC(=O)C(=O)O)[C@H](Oc1ccc2c(cnn2-c2ccc(F)cc2)c1)c1ccccc1 [Example 36] sits? rule not met

Strictly below 4 nM: is that where IC50 of CSc1ccc([C@@H](Oc2ccc3c(cnn3-c3ccc(F)cc3)c2)[C@H](C)NC(=O)COC(C)=O)cc1 [Example 10] sits? rule met

Strictly below 4 nM: is that where IC50 of COC[C@H](NC(=O)c1ccco1)[C@H](Oc1ccc2c(cnn2-c2ccc(F)cc2)c1)c1cccc(F)c1 [Example 112] sits? rule not met

Strictly below 4 nM: is that where IC50 of C[C@H](NC(=O)C(F)(F)F)[C@H](Oc1ccc2c(cnn2-c2ccc(F)cc2)c1)c1cc(F)cc(Cl)c1 [Example 161] sits? rule not met

Strictly below 4 nM: is that where IC50 of COc1ccc(F)cc1[C@@H](Oc1ccc2c(cnn2-c2ccc(F)cc2)c1)[C@H](C)NC(=O)C1(C)CC1 (stereo in doubt) [Example 268] sits? rule met

====

systemName: recombinant human GR (Homo sapiens)
Construct: purchased Panvera/Invitrogen P2812 (kit P2893)
assayName: Human Glucocorticoid Receptor (GR) Assay, fluorescence polarization
Assay type: binding
protocolConditions: GS Red tracer, incubated 2 h at r.t., XLfit model 205, read-out: GRhuFL_FP_v2 Mean IC50
metric: pIC50
One number for each entry, as −log10 of the molar value.

COc1cccc([C@@H](Oc2ccc3c(cnn3-c3ccc(F)cc3)c2)[C@H](C)NC(=O)c2nnc(C)o2)c1 [Example 277]; 8.33
COc1cccc([C@@H](Oc2ccc3c(cnn3-c3ccc(F)cc3)c2)[C@H](C)NC(=O)C(=O)N(C)C)c1 [Example 80]; 8.43

Hi, could you look up pIC50 for each item in my list?
1. C[C@H](NC(=O)C(C)(C)C)[C@H](Oc1ccc2c(cnn2-c2ccc(F)cc2)c1)c1ccc(C(C)(C)C)cc1 [Example 186]
2. C[C@H](NC(=O)C(C)(C)C)[C@@H](Cc1ccccc1)Oc1ccc2c(cnn2-c2ccc(F)cc2)c1 [Example 73]
3. Cc1ccc(F)cc1[C@@H](Oc1ccc2c(cnn2-c2ccc(F)cc2)c1)[C@H](C)NC(=O)C(F)(F)F [Example 157]
4. Cc1cnc(C(=O)N[C@@H](C)[C@H](Oc2ccc3c(cnn3-c3ccc(F)cc3)c2)c2ccc(Cl)cc2)s1 [Example 204]
5. C[C@H](NC(=O)C(C)(F)F)[C@H](Oc1ccc2c(cnn2-c2ccc(F)cc2)c1)c1ccc(F)c(F)c1 [Example 228]
6. Cc1ccc([C@@H](Oc2ccc3c(cnn3-c3ccc(F)cc3)c2)[C@H](C)NC(=O)C2(C)CC2)c(C)c1 [Example 216]

1. 8.18
2. 8.29
3. 8.28
4. 8.17
5. 8.10
6. 8.33

Hi, could you look up pIC50 for each item in my list?
1. C[C@H](NC(=O)C1(C)CC1)[C@H](Oc1ccc2c(cnn2-c2ccc(F)cc2)c1)c1ccc(F)c(F)c1 [Example 212]
2. C[C@H](NC(=O)C(F)(F)F)[C@H](Oc1ccc2c(cnn2-c2ccc(F)cc2)c1)c1ccc(Cl)cc1 [Example 160]
3. C[C@H](NC(=O)C(F)Cl)[C@H](Oc1ccc2c(cnn2-c2ccc(F)cc2)c1)c1ccccc1 (some centres unmarked) [Example 47]
4. C[C@H](NC(=O)C(C)(C)O)[C@H](Oc1ccc2c(cnn2-c2ccc(F)cc2)c1)c1ccccc1 [Example 5]

1. 8.28
2. 8.39
3. 8.60
4. 8.68

====

Provide the recorded pIC50 for the entries that follow.
systemName: recombinant human GR (Homo sapiens)
assayName: Human Glucocorticoid Receptor (GR) Assay, fluorescence polarization
protocolConditions: GS Red tracer, incubated 2 h at r.t., XLfit model 205, read-out: GRhuFL_FP_v2 Mean IC50
Numbers only, as −log10 of the molar value.

Some entries whose results are on file:
COCC(=O)N[C@@H](C)[C@H](Oc1ccc2c(cnn2-c2ncccn2)c1)c1ccccc1; 6.68
C[C@H](NC(=O)C(C)(C)CO)[C@H](Oc1ccc2c(cnn2-c2ccc(F)cc2)c1)c1ccc(F)c(F)c1; 8.28

Hi, could you look up pIC50 for each item in my list?
1. C[C@H](NC(=O)C(C)(C)C)[C@H](Oc1ccc2c(cnn2-c2ccc(F)cc2)c1)c1ccc(Cl)cc1
2. COc1cccc([C@@H](Oc2ccc3c(cnn3-c3ccc(F)cc3)c2)[C@H](C)NC(=O)c2cnoc2C)c1
3. COCC(=O)N[C@@H](C)[C@H](Oc1ccc2c(cnn2-c2ccc(F)cc2)c1)c1ccccc1
4. COc1cccc([C@@H](Oc2cc3cnn(-c4ccc(F)cc4)c3cc2C)[C@H](C)NC(=O)C(C)(C)C)c1
5. C[C@H](NC(=O)C(F)(F)F)[C@H](Oc1ccc2c(cnn2-c2ccc(F)cc2)c1)c1ccc(C(C)(C)C)cc1

1: 8.34; 2: 7.66; 3: 8.55; 4: 8.38; 5: 7.80

Assign pIC50 to the following record: `COCC(=O)N[C@@H](C)[C@H](Oc1ccc2c(cnn2-c2ccc(F)cc2)c1)c1ccc(C)c(F)c1` 8.28
